# PROCEDURE_TEXT: BET inhibitor-based combinations targeting novel dependencies in MECOM-rearranged (r) AML: AML-194 cell line (AID 2202237; further: nearly all actives have a fitted effect of over 40% in size)
# CONDITION_SET: AML-194 (MECOM-r AML) viability, CellTiter-Glo, 48 h; series mostly up to 46 µM
Inconclusive results are not listed. The source made the active and inactive calls. The call rests on the fitted dose curve; in most records, active means well fitted inhibition curve with a large enough effect; inconclusive means small, poorly fitted or top-dose-only effect; inactive means flat fitted curve, though single readings scatter. Residues, ends and D or L forms follow the SMILES beside them. *: point of attachment. Cbz = O=C(OCc1ccccc1)*
The categories you may choose from are YES for active, NO for inactive

Call for entry NC(=O)c1cccc(N)c1 :
NO

Try the molecule Cn1cnc2c1c(=O)[nH]c(=O)n2C
NO

Try the molecule CCCOc1ccc2nc(NC(=O)OC)[nH]c2c1
YES

Try the molecule Oc1ccc(C2=Cc3ccc(O)cc3OC2)cc1
YES

Try the molecule CC12CC3CC(C)(C1)CC(N)(C3)C2
NO

Try the molecule CC#CCn1c(N2CCC[C@@H](N)C2)nc2c1c(=O)n(Cc1nc(C)c3ccccc3n1)c(=O)n2C
NO

Try the molecule CC(C)C[C@@H](C=O)NC(=O)[C@H](CC(C)C)NC(=O)[C@H](CC(C)C)NC(=O)OCc1ccccc1 (Cbz-Leu-Leu-Leu-aldehyde)
YES

Try the molecule Nc1ccc(S(N)(=O)=O)cc1
NO

Try the molecule CCc1ccc(/C=C2/SC(=S)NC2=O)cc1
NO

Try the molecule NS(=O)(=O)c1cc(Cl)c(Cl)c(S(N)(=O)=O)c1
NO

Try the molecule COc1ccc(CC2=NN3C([C@@H](CCc4ccccc4)[C@@H](C)O)=NC(C)C3C(=O)N2)cc1OC (some centres not stated)
NO

Try the molecule CCOC(=O)[C@H](CCc1ccccc1)N[C@@H](C)C(=O)N1CCC[C@H]1C(=O)O
NO

Try the molecule c1ccc([C@H]2CN3CCSC3=N2)cc1
NO

Try the molecule CS(=O)(=O)c1ccc(-c2nnc(/C=C/c3nnc(-c4ccc(C#N)cc4)o3)n2-c2ccccc2Cl)nc1
NO

Try the molecule CN1CCC(=C2c3ccccc3CC(=O)c3sccc32)CC1
NO

Try the molecule CN1C(=O)C(Cc2c[nH]c3ccccc23)NC1=S (configuration not stated)
NO

Try the molecule CCS(=O)(=O)c1cccc(-c2cc(C(=O)NC3CCN(C)CC3)c(C)c3[nH]c4ncc(C)cc4c23)c1
YES

Try the molecule CC(C)N(C[C@H]1O[C@@H](n2cnc3c(N)ncnc32)[C@H](O)[C@@H]1O)C1CC(CCc2nc3ccc(C(C)(C)C)cc3[nH]2)C1 (some centres not stated)
NO

Try the molecule NC(CO)C(=O)NNCc1ccc(O)c(O)c1O (configuration not stated)
NO

Try the molecule CC(C)c1cc(C(C)C)c(CC(=O)NS(=O)(=O)Oc2c(C(C)C)cccc2C(C)C)c(C(C)C)c1
NO

Try the molecule CC(=O)OCCN1C(=O)c2c(C)nc3ccc(S(=O)(=O)N4CCOCC4)cc3c2C1=O
NO

Try the molecule Nc1ncnc2c1ncn2[C@@H]1O[C@H](CO)[C@@H](O)[C@H]1O
NO
